Each recorded value in this set is attributed to ChEMBL document CHEMBL1129250.

pKi values for the compounds below.
target.system: Adenosine receptor A3 (Homo sapiens, UniProt P0DMS8)
Sequence (P0DMS8 whole entry): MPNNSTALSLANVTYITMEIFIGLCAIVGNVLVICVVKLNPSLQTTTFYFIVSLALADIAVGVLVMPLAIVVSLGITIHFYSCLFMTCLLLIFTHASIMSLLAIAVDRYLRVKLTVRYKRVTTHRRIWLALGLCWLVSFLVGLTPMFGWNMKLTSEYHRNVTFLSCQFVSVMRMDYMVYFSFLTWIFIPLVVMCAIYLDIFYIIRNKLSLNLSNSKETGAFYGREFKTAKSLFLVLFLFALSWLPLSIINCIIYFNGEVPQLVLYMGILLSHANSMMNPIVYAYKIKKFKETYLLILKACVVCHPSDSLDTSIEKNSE
// pKi is dimensionless: -log10 of concentration (M)

CCOC(=O)C1=C(C)NC(C)=C(C(=O)OC)C1c1cccc([N+](=O)[O-])c1 (configuration not stated)
5.08

Then there is this compound:
Can you look up the measured pKi of CCOC(=O)C1=C(C)NC(C)=C(C(=O)OC)C1/C=C/c1ccccc1 (configuration not stated) for me?
6.17

---

target.system: Voltage-gated L-type calcium channel (Rattus norvegicus, UniProt P22002+Q02485+P27732)
protocol.notes: Inhibition of [3H]isradipine binding to L-type [Ca2+] channel of rat brain membranes
Type: cell membranes, Membrane
recorded.metric: Inhibition

Record excerpt, results attached:
CCOC(=O)C1=C(c2ccccc2)N=C(C)/C(=C(/O)OCC)C1/C=C/c1ccccc1 (centres undefined)
< 10%
CCOC(=O)C1=C(c2ccccc2)N=C(C)/C(=C(\O)OCC)C1C (stereo in doubt; 27)
17%
CCOC(=O)C1=C(C)NC(C)=C(C(=O)OC)C1C#Cc1ccccc1 (centres undefined)
23%

Can you look up the measured Inhibition of CCOC(=O)C1=C(c2ccccc2)N=C(C)/C(=C(\O)OCC)C1C (stereo in doubt; 30) for me?
< 10%

---

target.system: Adenosine receptor A3 (Rattus norvegicus, UniProt P28647)
Sequence (P28647 whole entry): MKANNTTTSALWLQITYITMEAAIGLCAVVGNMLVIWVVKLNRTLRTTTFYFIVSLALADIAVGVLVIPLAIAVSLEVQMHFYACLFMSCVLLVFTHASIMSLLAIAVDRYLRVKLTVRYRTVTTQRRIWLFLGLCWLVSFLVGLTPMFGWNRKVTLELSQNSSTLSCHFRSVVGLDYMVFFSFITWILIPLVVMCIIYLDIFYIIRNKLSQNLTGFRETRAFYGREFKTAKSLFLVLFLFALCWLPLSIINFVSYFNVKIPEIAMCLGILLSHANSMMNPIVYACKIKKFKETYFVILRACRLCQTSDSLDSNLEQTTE
protocol.notes: Binding affinity against rat Adenosine A3 receptor from CHO cells
Format: cell-based
recorded.metric: Ki
Please make sure the unit comes right after the number.

Can you look up the measured Ki of CCOC(=O)C1=C(C)NC(C)=C(C(=O)OC)C1/C=C/c1ccccc1 (stereo unspecified) for me?
12.1 µM

---

Adenosine receptor A1 (Rattus norvegicus) measurements of pKi, listed per entry.
Sequence (P25099 whole entry): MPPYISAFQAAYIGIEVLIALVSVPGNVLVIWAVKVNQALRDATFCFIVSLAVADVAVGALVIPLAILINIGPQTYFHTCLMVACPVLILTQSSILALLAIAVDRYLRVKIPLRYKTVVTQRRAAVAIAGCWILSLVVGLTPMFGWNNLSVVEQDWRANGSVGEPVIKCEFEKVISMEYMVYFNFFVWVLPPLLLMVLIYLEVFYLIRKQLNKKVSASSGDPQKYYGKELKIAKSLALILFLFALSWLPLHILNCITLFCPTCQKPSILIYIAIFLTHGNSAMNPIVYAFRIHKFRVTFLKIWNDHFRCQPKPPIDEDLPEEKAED
// pKi is dimensionless: -log10 of concentration (M)

Record excerpt, results attached:
CCOC(=O)C1=C(C)NC(C)=C(C(=O)OC)C1/C=C/c1ccccc1 (stereo not drawn)
4.79
CCO/C(O)=C1\C(C)=NC(C)=C(C(=O)OC)C1c1ccc2c(c1)OCO2 (stereo not drawn)
5.44

What is its pKi for Adenosine receptor A1 (Rattus norvegicus)? Entry: CCOC(=O)C1=C(C)NC(C)=C(C(=O)OC)C1c1cccc([N+](=O)[O-])c1 (stereo not drawn)
5.05

---

target.system: Adenosine receptor A2a (Rattus norvegicus)
Sequence (P30543 whole entry): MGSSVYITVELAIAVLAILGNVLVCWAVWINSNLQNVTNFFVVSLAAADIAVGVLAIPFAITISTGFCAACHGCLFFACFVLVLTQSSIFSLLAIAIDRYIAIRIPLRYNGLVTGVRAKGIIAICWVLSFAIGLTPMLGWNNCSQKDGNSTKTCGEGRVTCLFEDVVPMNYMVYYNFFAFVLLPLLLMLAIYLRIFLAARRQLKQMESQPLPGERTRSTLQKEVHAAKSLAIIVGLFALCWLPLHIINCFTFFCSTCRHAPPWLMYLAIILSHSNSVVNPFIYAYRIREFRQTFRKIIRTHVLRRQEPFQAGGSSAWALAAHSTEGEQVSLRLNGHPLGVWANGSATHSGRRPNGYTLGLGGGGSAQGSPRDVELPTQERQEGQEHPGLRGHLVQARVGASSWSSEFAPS
protocol.notes: Displacement of [3H]-CGS- 21680 binding to Adenosine A2A receptor in rat striatal membranes
Assay type: cell membranes, Membrane
condition.set: read-out: Ki
recorded.metric: pKi
// pKi is dimensionless: -log10 of concentration (M)

Record excerpt, results attached:
CCO/C(O)=C1\C(C)=NC(C)=C(C(=O)OC)C1c1ccc2c(c1)OCO2 (centres undefined)
5.28
CCO/C(O)=C1\C(C)=NC(C)=C(C(=O)OC)C1CC (centres undefined)
5.02

Can you look up the measured pKi of CCO/C(O)=C1\C(C)=NC(C)=C(C(=O)OC)C1CCc1ccccc1 (centres undefined) for me?
5.17

Can you look up the measured pKi of CCO/C(O)=C1\C(C)=NC(C)=C(C(=O)OC)C1c1ccc(O)c(OC)c1 (centres undefined) for me?
4.25

Can you look up the measured pKi of COc1ccc(C2C=CNC=C2)cc1 for me?
4.15

Can you look up the measured pKi of CCO/C(O)=C1\C(C)=NC(C)=C(C(=O)OC)C1c1ccc([N+](=O)[O-])cc1 (centres undefined) for me?
4.45

Can you look up the measured pKi of CCO/C(O)=C1\C(C)=NC(C)=C(C(=O)OC)C1c1ccc(OC)cc1 (centres undefined) for me?
4.90

Can you look up the measured pKi of CCO/C(O)=C1\C(C)=NC(C)=C(C(=O)OC)C1C (stereo in doubt; 1) for me?
4.34

Can you look up the measured pKi of CCOC(=O)C1=C(C)NC(C)=C(C(=O)OC)C1c1cccc([N+](=O)[O-])c1 (centres undefined) for me?
4.64
